Where do the numbers come from? From patent US20220348592A1.

assay.text: Cytotoxicity in HepG2.117 cells, ATPlite Luminescence Assay
Format: cell-based, human
settings: human, incubated for 3 days, mean value, read-out: TOX-HepG2.117 CC50 (μM, mean value)
So I've got a bunch of compounds here, and I need their CC50 at 3 days values.

Tell me the measured CC50 at 3 days of COc1cc(Cl)ccc1C(=O)N1CCc2nn3c(c2C1)C(=O)N(Cc1ccccn1)CC3 [Example C76] , please. > 25 µM

Same question for CC(C)N1CCn2nc3c(c2C1=O)CN(C(=O)c1ccc(Cl)c(Cl)c1)CC3 [Compound 2] please. > 50 µM

Another compound: Cc1cc(F)ncc1CN1CCn2nc3c(c2C1=O)CN(C(=O)c1ccc(Cl)c(Cl)c1)[C@H](C)C3 [Example C177] > 50 µM

Try this compound next: C[C@@H]1Cc2nn3c(c2CN1C(=O)c1ccc(Cl)c(Cl)c1)C(=O)N([C@@H](C)c1nc[nH]n1)CC3 [Compound 30] > 50 µM

Please give the result for C[C@@H]1Cc2nn3c(c2CN1C(=O)c1ccc(Cl)c(Cl)c1)C(=O)N(Cc1cc(F)ccc1C(F)(F)F)CC3 [Example C181] too. > 50 µM

Same lookup for C[C@@H]1Cc2nn3c(c2CN1C(=O)c1cc2c(C(F)(F)F)c(F)ccc2[nH]1)C(=O)N(Cc1ccccn1)CC3 [Example C125] , please. > 50 µM

Now try C[C@@H]1Cc2nn3c(c2CN1C(=O)c1cc2c(Cl)ccc(F)c2[nH]1)C(=O)N(Cc1ccccn1)CC3 [Example C117] . 18.2 µM

# iterate: CC(c1cncnc1)N1CCn2nc3c(c2C1=O)CN(C(=O)c1ccc(Cl)c(Cl)c1)[C@H](C)C3 (some centres unmarked) [Example C103] > 50 µM

What would you report for C[C@@H]1Cc2nn3c(c2CN1C(=O)c1ccc(Cl)c(Cl)c1)C(=O)N(Cc1coc(C(F)(F)F)n1)CC3 [Example C172] ? > 50 µM

Please give the result for C[C@@H]1Cc2nn3c(c2CN1C(=O)c1ccc(Cl)c(Cl)c1)C(=O)N(Cc1cn2ccc(C(F)(F)F)cc2n1)CC3 [Example C176] too. 15 µM

Try the compound COc1ccc(C#N)cc1CN1CCn2nc3c(c2C1=O)CN(C(=O)c1ccc(Cl)c(Cl)c1)[C@H](C)C3 [Example C215] > 50 µM

// same read-out, input: C[C@@H]1Cc2nn3c(c2CN1C(=O)c1ccc(Cl)c(Cl)c1)C(=O)N(Cc1ccc(F)cc1)CC3 [Compound 12] 25.3 µM

Query CCc1nnc(C(C)N2CCn3nc4c(c3C2=O)CN(C(=O)c2ccc(Cl)c(Cl)c2)[C@H](C)C4)o1 (some centres unmarked) [Example C220] next > 50 µM

For C[C@@H]1Cc2nn3c(c2CN1C(=O)c1ccc(Cl)c(Cl)c1)C(=O)N([C@H](C)c1ccc(OC(F)F)cc1)CC3 [Compound 27] then? > 50 µM

* * *

For each entry below, report its CC50 at 3 days value.
assay.text: Cytotoxicity in HepG2.117 cells, ATPlite Luminescence Assay
Type: cell-based, human
settings: human, incubated for 3 days, mean value, read-out: TOX-HepG2.117 CC50 (μM, mean value)
Field format: number, assumed µM, no unit text.

// CC50 at 3 days lookup, key: `O=C(c1ccc(Cl)c(Cl)c1)N1CCc2nn3c(c2C1)C(=O)N(Cc1c[nH]c2ccccc12)CC3` 10.8

`C[C@@H]1Cc2nn3c(c2CN1C(=O)c1ccc(Cl)c(Cl)c1)C(=O)N(Cc1ccc(OC(F)F)cn1)CC3` ? 14.5

Could you do the same for `C[C@@H]1Cc2nn3c(c2CN1C(=O)c1ccc(Cl)c(Cl)c1)C(=O)N(Cc1ccc(Cl)nc1)CC3` , please? 36.7

Thanks! And `C[C@@H]1Cc2nn3c(c2CN1C(=O)c1ccc(Cl)c(Cl)c1)C(=O)N(Cc1ccc(C(F)(F)F)cn1)CC3` ? 18.8
